molecular target: T1, AAV5 (adeno-associated virus 5); experiment: SPR, AAV amine-coupled to CM5 chip;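 also: nanobodies flowed as analyte at seven concentrations spanning 1–100 nM over immobilized AAV (500–800 RU), kinetic constants derived by fitting the binding curves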
T1 construct: also called adeno-associated virus serotype 5
readoutLabel: Kd (nM)
Numeric answer only, unit nM assumed.

A4-052 (VHH) VHH: VQLQESGGGLVQPGGSLRLSCAASGSIFIINTMGWYRQAPGKQRELVAAVTRGGSTNYADSVKGRFTISRDNAKNTVYLQMNSLRPEDTAVYYCHVDEVRQSSWTTSNLWGQGTQVTVSS = 388
A4-096 (VHH) VHH: VQLQESGGGLVQPGGSLRLSCIASGSSFSANTMGWYRQAPGKQRELVATITRGGNTNYGDSVKGRFTISRDNAKNTVYLQMNSLRPEDTAVYYCHIDEIRESTWTTSNLWGQGTQVTVSS = 48.9
A4-055 (VHH) VHH: VQLQESGGGLVQPGGSLRLSCAASGSIFSINTMGWYRQAPGKQRELVAAVTRGGSTNYADSVKGRFTISRDNAKNTVYLQMNSLRPEDTAVYYCHVDEVRQSSWTTSNLWGQGTQVTVSS = 1.11
A4-083 (VHH) VHH: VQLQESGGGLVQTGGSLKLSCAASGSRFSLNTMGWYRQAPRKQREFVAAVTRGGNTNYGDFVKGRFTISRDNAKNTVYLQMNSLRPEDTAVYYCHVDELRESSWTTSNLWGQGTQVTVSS = 31
A4-098 (VHH) VHH: VQLQESGGGLVQPGGSLRLSCIASGSIFSINTMGWYRQAPGKQRELVATITRGGNTNYGDSVKGRFTISRDNAKNTVYLQMNTLRPEDTAVYYCHVDEIRESSWTTSNLWGQGTQVTVSS = 130
A4-078 (VHH) VHH: VQLQESGGGLVQPGGSLRLSCLASGTMFSLNTMGWYRQAPGKQRELVATVTRGGSTNYADFVKGRFTISRDNAKNTVYLQMNSLRPEDTAVYYCHVDEVRDSSWTTSNLWGQGTQVTVSS = 52.7
A4-086 (VHH) VHH: VQLQESGGGLVQPGGSLRLSCAASGSRFSLNTMGWYRQAPGKQRELVAAVTRGGNTNYADFVKGRFTISRDNAKNTVYLQMNSLRPEDTAVYYCHVDELRESSWTTSNLWGQGTQVTVSS = 23.1
A4-062 (VHH) VHH: VQLQESGGGLVQAGGSLRLSCAASGSSFSINAMGWYRQAPGKQRELVATVTRGGTTNYADSVKGRFTISRDNPKNTVYLQMNSLRPEDTAVYYCHLDEVRESSWTTSNLWGQGTQVTVSS = 0.0635

Request: Look up Kd for this binder: A4-095 (VHH) VHH: VQLQESGGGLVQPGGSLRLSCAASGSSFSANTMGWYRQAPGKQRELVATITRGGNTNYGDSVKGRFTISRDNAKDTVYLQMNSLRPEDTAVYYCHIDEIRESTWTTSNLWGQGTQVTVSS
Response: 14.5

Sourced from patent US20260193326A1
